meta.source: patent EP0192327A2

test: Toxicity: cytotoxicity in FE-10 cells; type: cell-based; details: FE-10 (mouse modified 3T3) cells, no cytotoxicity up to 100µM, read-out: concentrations at which no cytotoxicity was observed

>  <Substance Smiles>
O=C(O)P(=O)(O)O

>  <MNTC>
≥ 100 µM

$$$$
